Value source: paper PMC10372819

assay overview: In vivo pharmacokinetics in Sprague-Dawley rats
condition label: male, rat, plasma, iv, 1 mg/kg
experimental endpoint: Tmax (min)
Write the number in min without appending the unit.

Incoming: Fill blank: measured Tmax of the molecule N#Cc1ccc(Nc2ncc(CO)c(Oc3c(F)cc(-c4ccc(C#N)cc4)cc3F)n2)cc1 [9g] is ____.
Outgoing: 4.8

* * *

This listing pairs compounds with measured CC50 at 5 days.
assay overview: Cytotoxicity in uninfected
condition label: human, mock-infected (uninfected) MT-4 cells, CC50, uninfected MT-4 cells, MTT
Write down the numeric answer in µM and omit the unit.

| compound | experimental endpoint | observed measurement |
| --- | --- | --- |
| N#Cc1ccc(Nc2ncc(CO)c(Oc3ccc(-c4ccncc4)cc3Cl)n2)cc1 [9k] | CC50 at 5 days | 264 |

Turning now to a further record.
Incoming: What CC50 at 5 days value was documented for this compound, N#Cc1ccc(Nc2ncc(CO)c(Oc3ccc(-c4ccc(C#N)cc4)cc3C(F)(F)F)n2)cc1 [9f] ?
Outgoing: 14.6
